molecular target: Tyrosine-protein phosphatase non-receptor type 1 (Homo sapiens); test: Inhibition of PTP1B at 100 uM
quantity.measured: inhibition (%)

Would you please look over these solved cases?
> print(dat)
                                   compound                              assay.target  reading
1  CCCCN(CCCC)CC1(CN(CCCC)CCCC)COc2ccc3c(C)cc(=O)oc3c2C1=O  Tyrosine-protein phosphatase non-receptor type 1 (Homo sapiens)     43.6
2  Cc1cc(=O)oc2c3c(ccc12)OCC(CN1CCN(c2ccccc2)CC1)(CN1CCN(c2ccccc2)CC1)C3=O  Tyrosine-protein phosphatase non-receptor type 1 (Homo sapiens)     28.7
3  CCOCC1(CN2CCCCC2)COc2ccc3c(C)cc(=O)oc3c2C1=O (stereo not given)  Tyrosine-protein phosphatase non-receptor type 1 (Homo sapiens)     88.5

A. Cc1cc(=O)oc2c3c(ccc12)OCC(CO)(CN1CCOCC1)C3=O (stereo not given)
B. CCOCC1(CN2CCN(c3ccccn3)CC2)COc2ccc3c(C)cc(=O)oc3c2C1=O (stereo not given)
# returns the entry with the larger inhibition; inputs A and B To answer, give the label that identifies your chosen option.
A

A. CCOCC1(CN2CCOCC2)COc2ccc3c(C)cc(=O)oc3c2C1=O (stereo not given)
B. Cc1cc(=O)oc2c3c(ccc12)OCC(CN1CCN(C)CC1)(CN1CCN(C)CC1)C3=O
# returns the entry with the larger inhibition; inputs A and B To answer, give the label that identifies your chosen option.
A

###

target: Dipeptidyl peptidase 4 (Homo sapiens) (UniProt P27487); assay: Inhibition of DPP4 at 100 uM
Sequence (P27487 whole entry, looked up): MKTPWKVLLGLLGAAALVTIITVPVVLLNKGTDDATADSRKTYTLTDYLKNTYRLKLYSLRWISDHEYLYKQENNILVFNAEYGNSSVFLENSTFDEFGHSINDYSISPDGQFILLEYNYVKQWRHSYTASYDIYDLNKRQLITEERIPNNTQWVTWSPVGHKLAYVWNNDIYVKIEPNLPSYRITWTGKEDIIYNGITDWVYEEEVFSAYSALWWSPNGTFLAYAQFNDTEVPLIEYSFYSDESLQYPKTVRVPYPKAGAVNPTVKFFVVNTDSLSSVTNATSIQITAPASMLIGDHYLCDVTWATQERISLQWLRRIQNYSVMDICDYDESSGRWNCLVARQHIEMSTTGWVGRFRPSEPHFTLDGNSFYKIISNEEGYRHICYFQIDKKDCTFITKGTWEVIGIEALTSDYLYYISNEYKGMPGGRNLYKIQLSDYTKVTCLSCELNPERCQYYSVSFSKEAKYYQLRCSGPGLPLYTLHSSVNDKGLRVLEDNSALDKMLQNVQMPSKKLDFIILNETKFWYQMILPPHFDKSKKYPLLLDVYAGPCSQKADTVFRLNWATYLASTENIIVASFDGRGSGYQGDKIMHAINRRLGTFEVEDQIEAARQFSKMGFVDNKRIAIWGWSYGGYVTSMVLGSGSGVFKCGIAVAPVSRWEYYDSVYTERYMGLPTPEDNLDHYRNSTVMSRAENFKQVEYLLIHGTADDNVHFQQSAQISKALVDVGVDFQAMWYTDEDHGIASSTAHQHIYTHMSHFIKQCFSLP
Activity calls are given as the source filed them. No cut-off for these calls is given here.
quantity.measured: inhibition

Would you please look over these solved cases?
> print(dat)
                                   compound                              assay.target   reading
1  Cc1cc(=O)oc2c3c(ccc12)OCC(CN1CCCCC1)(CN1CCCCC1)C3=O  Dipeptidyl peptidase 4 (Homo sapiens) (UniProt P27487)      6.8%
2  CCCCN(CCCC)CC1(CN(CCCC)CCCC)COc2ccc3c(C)cc(=O)oc3c2C1=O  Dipeptidyl peptidase 4 (Homo sapiens) (UniProt P27487)     11.4%
3  CCOCC1(CN2CCOCC2)COc2ccc3c(C)cc(=O)oc3c2C1=O (centres undefined)  Dipeptidyl peptidase 4 (Homo sapiens) (UniProt P27487)  inactive
4  CCCCN(CCCC)CC1(COCC)COc2ccc3c(C)cc(=O)oc3c2C1=O (centres undefined)  Dipeptidyl peptidase 4 (Homo sapiens) (UniProt P27487)  inactive
5  CCOCC1(CN2CCN(c3ccccn3)CC2)COc2ccc3c(C)cc(=O)oc3c2C1=O (centres undefined)  Dipeptidyl peptidase 4 (Homo sapiens) (UniProt P27487)  inactive
6  Cc1cc(=O)oc2c3c(ccc12)OCC(CN1CCN(c2ccccn2)CC1)(CN1CCN(c2ccccn2)CC1)C3=O  Dipeptidyl peptidase 4 (Homo sapiens) (UniProt P27487)      9.8%
7  Cc1cc(=O)oc2c3c(ccc12)OCC(CN1CCN(c2ccccc2)CC1)(CN1CCN(c2ccccc2)CC1)C3=O  Dipeptidyl peptidase 4 (Homo sapiens) (UniProt P27487)     15.2%
8  CCOCC1(CN2CCN(C)CC2)COc2ccc3c(C)cc(=O)oc3c2C1=O (centres undefined)  Dipeptidyl peptidase 4 (Homo sapiens) (UniProt P27487)      7.9%

Kindly consider the entry below.
Answer with reported inhibition of Cc1cc(=O)oc2c3c(ccc12)OCC(CN1CCCC1)(CN1CCCC1)C3=O
8.2%

###

test: Inhibition of glycogen phosphorylase assessed as inorganic phosphate release at 100 uM
Activity calls are given as the source filed them. No cut-off for these calls is given here.
quantity.measured: inhibition

> print(dat)
                                   molecule  quantity.measured   reading
1  Cc1cc(=O)oc2c3c(ccc12)OCC(CN1CCN(c2ccccc2)CC1)(CN1CCN(c2ccccc2)CC1)C3=O         inhibition     22.1%
2  CCOCC1(CN2CCN(c3ccccn3)CC2)COc2ccc3c(C)cc(=O)oc3c2C1=O (centres undefined)         inhibition     30.1%
3  CCCCN(CCCC)CC1(CN(CCCC)CCCC)COc2ccc3c(C)cc(=O)oc3c2C1=O         inhibition     11.1%
4  CCOCC1(CN2CCOCC2)COc2ccc3c(C)cc(=O)oc3c2C1=O (centres undefined)         inhibition      8.4%
5  Cc1cc(=O)oc2c3c(ccc12)OCC(CN1CCN(c2ccccn2)CC1)(CN1CCN(c2ccccn2)CC1)C3=O         inhibition       11%
6  CCOCC1(CN(CC)CC)COc2ccc3c(C)cc(=O)oc3c2C1=O (centres undefined)         inhibition  inactive
7  Cc1cc(=O)oc2c3c(ccc12)OCC(CN1CCCC1)(CN1CCCC1)C3=O         inhibition     15.2%
8  CCOCC1(CN2CCN(C)CC2)COc2ccc3c(C)cc(=O)oc3c2C1=O (centres undefined)         inhibition     26.9%

Kindly consider the entry below.
Answer with reported inhibition of Cc1cc(=O)oc2c3c(ccc12)OCC(CO)(CN1CCOCC1)C3=O (centres undefined)
inactive

###

Target: Glucose-6-phosphatase catalytic subunit 1 (Homo sapiens)
Sequence (whole entry): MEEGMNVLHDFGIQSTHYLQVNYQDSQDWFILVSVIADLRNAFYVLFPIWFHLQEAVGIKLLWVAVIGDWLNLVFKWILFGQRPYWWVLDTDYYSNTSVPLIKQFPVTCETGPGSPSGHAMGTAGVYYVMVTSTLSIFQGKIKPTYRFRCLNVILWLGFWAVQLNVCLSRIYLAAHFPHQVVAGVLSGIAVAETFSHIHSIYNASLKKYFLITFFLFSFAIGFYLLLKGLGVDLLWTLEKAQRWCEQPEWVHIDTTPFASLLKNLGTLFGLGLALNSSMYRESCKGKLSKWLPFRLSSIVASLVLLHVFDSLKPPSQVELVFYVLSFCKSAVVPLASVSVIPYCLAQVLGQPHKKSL
Assay: Inhibition of glucose 6 phosphatase assessed as inorganic phosphate release at 100 uM
quantity.measured: inhibition (%)

> print(dat)
                                   compound  reading
1  Cc1cc(=O)oc2c3c(ccc12)OCC(CO)(CN1CCCC1)C3=O (centres undefined)     5.83
2  Cc1cc(=O)oc2c3c(ccc12)OCC(CO)(CN1CCOCC1)C3=O (centres undefined)      3.5
3  CCOCC1(CN2CCCC2)COc2ccc3c(C)cc(=O)oc3c2C1=O (centres undefined)     8.31

a. Cc1cc(=O)oc2c3c(ccc12)OCC(CN1CCN(c2ccccn2)CC1)(CN1CCN(c2ccccn2)CC1)C3=O
b. CCOCC1(CN2CCOCC2)COc2ccc3c(C)cc(=O)oc3c2C1=O (centres undefined)
# returns the entry with the larger inhibition; inputs a and b To answer, give the label that identifies your chosen option.
a
(a: 28%, b: 12.4%)

A. CCOCC1(CN2CCN(C)CC2)COc2ccc3c(C)cc(=O)oc3c2C1=O (centres undefined)
B. CCOCC1(CN2CCCCC2)COc2ccc3c(C)cc(=O)oc3c2C1=O (centres undefined)
C. CCOCC1(CN2CCN(c3ccccc3)CC2)COc2ccc3c(C)cc(=O)oc3c2C1=O (centres undefined)
# sort list by recorded inhibition, greatest to least Write the labels in rank order as requested.
C, A, B
(C: 31.7%, A: 17.4%, B: 6.56%)

###

biological target: Maltase-glucoamylase (Homo sapiens); experiment: Inhibition of alpha-glucosidase at 100 uM
Active and inactive are the calls of the source. The rule behind the calls is not given here.
quantity.measured: inhibition

Would you please look over these solved cases?
> print(dat)
                                   compound  quantity.measured  reading
1  CCN(CC)CC1(CN(CC)CC)COc2ccc3c(C)cc(=O)oc3c2C1=O         inhibition     8.5%
2  Cc1cc(=O)oc2c3c(ccc12)OCC(CN1CCOCC1)(CN1CCOCC1)C3=O         inhibition     8.3%
3  Cc1cc(=O)oc2c3c(ccc12)OCC(CN1CCN(c2ccccn2)CC1)(CN1CCN(c2ccccn2)CC1)C3=O         inhibition    15.8%
4  Cc1cc(=O)oc2c3c(ccc12)OCC(CN1CCN(c2ccccc2)CC1)(CN1CCN(c2ccccc2)CC1)C3=O         inhibition    15.9%
5  Cc1cc(=O)oc2c3c(ccc12)OCC(CO)(CN1CCCCC1)C3=O (centres undefined)         inhibition    37.3%

Answer with reported inhibition of CCOCC1(CN2CCOCC2)COc2ccc3c(C)cc(=O)oc3c2C1=O (centres undefined)
inactive

Answer with reported inhibition of Cc1cc(=O)oc2c3c(ccc12)OCC(CN1CCCC1)(CN1CCCC1)C3=O
inactive

Answer with reported inhibition of CCOCC1(CN2CCN(c3ccccn3)CC2)COc2ccc3c(C)cc(=O)oc3c2C1=O (centres undefined)
11.3%

Answer with reported inhibition of CCOCC1(CN2CCN(c3ccccc3)CC2)COc2ccc3c(C)cc(=O)oc3c2C1=O (centres undefined)
16.2%

Origin of the recorded values: ChEMBL document CHEMBL1154339
